# Assay Summary: Biodistribution in ddY mice
# Format: in vivo
# Test Parameters: i.v. co-injection, 1 h
Marks after values point to notes of the source that are not given here.
Recorded Radioactivity in Bone, one value per entry.

Record excerpt, results attached:
COCCOc1ccc2c(c1)ncn2-c1ccc2c([77Br])ccc(N3CCC(N)CC3)c2n1 [[^77Br]2] :: 1.15 (0.15) %injected dose/gram tissue
COCCOc1ccc2c(c1)ncn2-c1ccc2c([125I])ccc(N3CCC(N)CC3)c2n1 [[^125I]4, reference compound] :: 1.22 (0.29) %injected dose/gram tissue

Note: attention shifts to another entry.
Query block: Look up Radioactivity in Bone of COCCOc1ccc2c(c1)ncn2-c1ccc2cccc(N3CCC(NC(=O)c4cccc([77Br])c4)CC3)c2n1 [[^77Br]3] and report it.
Result block: 1.60 (0.27) %injected dose/gram tissue
